Reported values of pIC50 for individual entries
Biological target: human acetyl-CoA carboxylase 2 (ACC2) (Homo sapiens, UniProt O00763)
Construct: The cDNA encoding amino acids 144 to 2458 of human acetyl-CoA carboxylase 2; made in house; host or cells: Sf9 insect cells (baculovirus, pFastBac1)
Sequence (O00763 144-2458): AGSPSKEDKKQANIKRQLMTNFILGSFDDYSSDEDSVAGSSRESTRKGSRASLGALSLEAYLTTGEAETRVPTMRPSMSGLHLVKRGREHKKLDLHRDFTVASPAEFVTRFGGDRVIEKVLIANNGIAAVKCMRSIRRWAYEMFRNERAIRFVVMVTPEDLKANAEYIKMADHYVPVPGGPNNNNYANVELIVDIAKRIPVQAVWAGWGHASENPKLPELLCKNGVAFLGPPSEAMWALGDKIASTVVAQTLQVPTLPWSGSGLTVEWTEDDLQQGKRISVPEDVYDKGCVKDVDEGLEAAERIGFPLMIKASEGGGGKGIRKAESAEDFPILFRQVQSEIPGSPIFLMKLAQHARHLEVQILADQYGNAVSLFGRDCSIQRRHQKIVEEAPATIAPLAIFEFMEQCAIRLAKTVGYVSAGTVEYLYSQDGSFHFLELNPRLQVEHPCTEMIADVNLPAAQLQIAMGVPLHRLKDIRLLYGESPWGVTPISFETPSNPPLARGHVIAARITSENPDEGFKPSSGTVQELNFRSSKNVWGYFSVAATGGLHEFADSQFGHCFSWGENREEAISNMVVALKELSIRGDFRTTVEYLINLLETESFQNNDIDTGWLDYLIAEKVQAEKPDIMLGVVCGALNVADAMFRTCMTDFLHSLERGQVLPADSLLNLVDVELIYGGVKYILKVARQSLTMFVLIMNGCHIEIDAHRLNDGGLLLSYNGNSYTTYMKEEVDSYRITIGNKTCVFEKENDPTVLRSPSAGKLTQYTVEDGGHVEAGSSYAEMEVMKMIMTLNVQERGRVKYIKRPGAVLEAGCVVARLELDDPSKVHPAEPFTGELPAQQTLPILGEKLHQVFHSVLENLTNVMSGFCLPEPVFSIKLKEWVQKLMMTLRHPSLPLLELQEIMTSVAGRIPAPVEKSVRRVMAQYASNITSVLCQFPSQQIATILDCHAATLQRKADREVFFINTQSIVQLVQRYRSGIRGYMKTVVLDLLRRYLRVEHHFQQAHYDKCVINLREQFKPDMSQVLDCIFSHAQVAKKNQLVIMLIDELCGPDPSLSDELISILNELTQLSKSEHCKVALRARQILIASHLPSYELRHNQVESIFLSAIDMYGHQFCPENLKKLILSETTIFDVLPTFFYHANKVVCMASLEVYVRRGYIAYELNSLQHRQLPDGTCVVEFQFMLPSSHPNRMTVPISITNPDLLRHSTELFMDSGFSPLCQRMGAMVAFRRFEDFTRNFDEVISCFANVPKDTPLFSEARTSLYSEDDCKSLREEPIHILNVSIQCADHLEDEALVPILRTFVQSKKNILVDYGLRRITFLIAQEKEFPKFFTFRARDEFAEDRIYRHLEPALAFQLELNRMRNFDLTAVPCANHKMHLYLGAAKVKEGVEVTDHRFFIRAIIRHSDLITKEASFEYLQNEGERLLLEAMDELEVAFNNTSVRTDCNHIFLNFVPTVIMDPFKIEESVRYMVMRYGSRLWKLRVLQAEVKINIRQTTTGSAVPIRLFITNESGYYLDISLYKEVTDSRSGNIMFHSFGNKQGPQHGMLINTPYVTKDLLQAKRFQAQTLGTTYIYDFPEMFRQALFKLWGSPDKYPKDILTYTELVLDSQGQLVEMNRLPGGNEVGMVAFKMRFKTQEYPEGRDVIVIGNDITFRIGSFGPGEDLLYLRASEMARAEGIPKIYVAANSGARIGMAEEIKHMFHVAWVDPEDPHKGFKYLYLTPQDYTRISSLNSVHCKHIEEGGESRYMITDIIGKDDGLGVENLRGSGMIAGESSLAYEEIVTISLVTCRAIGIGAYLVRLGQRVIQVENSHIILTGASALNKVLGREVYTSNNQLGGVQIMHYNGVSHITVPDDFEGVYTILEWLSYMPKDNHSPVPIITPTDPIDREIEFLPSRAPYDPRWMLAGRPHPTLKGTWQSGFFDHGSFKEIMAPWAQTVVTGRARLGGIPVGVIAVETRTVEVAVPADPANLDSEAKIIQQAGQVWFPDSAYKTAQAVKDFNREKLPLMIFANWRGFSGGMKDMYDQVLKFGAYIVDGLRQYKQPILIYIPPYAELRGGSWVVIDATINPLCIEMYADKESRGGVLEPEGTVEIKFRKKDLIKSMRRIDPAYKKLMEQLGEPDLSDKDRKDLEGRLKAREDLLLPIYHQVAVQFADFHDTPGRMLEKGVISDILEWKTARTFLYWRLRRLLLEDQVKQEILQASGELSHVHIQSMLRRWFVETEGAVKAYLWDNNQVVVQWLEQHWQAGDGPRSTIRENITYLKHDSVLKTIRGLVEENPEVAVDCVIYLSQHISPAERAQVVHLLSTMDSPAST
Experiment: Acetyl-CoA carboxylase enzyme assay (malonyl-CoA formation by LC/MS/MS)
Assay type: biochemical
Details: recombinant human ACC2 (aa 144-2458); read-out: IC50 ACC2
pIC50: −log10 of the molar value.

| compound | value comparator | pIC50 |
| --- | --- | --- |
| COc1ccc(COC(=O)C2(C)CCC(NS(=O)(=O)c3ccc4c(ccn4C)c3)CC2)cc1 (stereo not shown) [Example 379] | = | 6.24 |
| CCCN(CC1CC1)C(=O)[C@H]1CC[C@H](NS(=O)(=O)c2ccc3[nH]c(-c4ccccc4)nc3c2)CC1 [Example 625] | = | 7.10 |
| Cn1c(-c2ccc(CCC(=O)O)cc2)c(C#N)c2ccc(S(=O)(=O)N[C@H]3CC[C@H](C(=O)N4CCC[C@@H]4C(C)(C)C)CC3)cc21 [Example 430] | > | 8.00 |
| CN(C(=O)[C@H]1CC[C@H](NS(=O)(=O)c2ccc3[nH]c(-c4ccccc4)nc3c2)CC1)C1CCCCC1 [Example 618] | = | 7.10 |

Reference source for all entries: patent US8697739B2
